- run.description: qHTS of pediatric cancer cell lines to identify multiple opportunities for drug repurposing: Confirmatory screen for U-2 OS cells (AID 1347122); also: potency is read from the fitted curve at half-maximal effect; nearly all actives have a fitted effect of over 65% in size
- recorded.conditions: U-2 OS osteosarcoma cell viability; series mostly up to 45.9 µM
Results filed as inconclusive are left out. Activity calls are given as the source filed them. Calls follow the shape of the dose curve; as a rule, active = well fitted cell-killing curve with a large enough effect; inconclusive = small, poorly fitted or top-dose-only effect; inactive = no such curve, though single readings can be large or run the other way.
Measured Potency accompanies every entry in the list below.

item.smiles | Potency
CC[C@@]1(O)C(=O)OCc2c1cc1n(c2=O)Cc2cc3ccccc3nc2-1 | 1.04 µM (active)

Q: Quick one: Potency of CC[C@H]1C=CC=CC[C@@H](C)[C@H](O)[C@@](C)(O)C(=O)[C@@H](C)[C@H](O)[C@@H](C)C(=O)[C@@H](C)[C@H](O)[C@@H](C)C=CC(=O)O[C@@H]2[C@@H](C)[C@H](CC1)O[C@]1(CC[C@H](C)[C@H](C[C@@H](C)O)O1)[C@H]2C ?
Result: 0.0046 µM (active)

Q: Entry COc1ccc(C(=O)c2c(C)n(CCN3CCOCC3)c3cc(I)ccc23)cc1 : reported Potency = ?
Result: 16.5 µM (active)

====

- run.description: Quantitative High-Throughput drug screen in 47 multiple myeloma cell lines against the NCATS MIPE library collection: JIM1_ECACC cell viability assay (AID 1918964)
- recorded.conditions: JIM1 myeloma viability, CellTiter-Glo ATP luminescence, 48 h; series mostly up to 45.8 µM
Results filed as inconclusive are left out. Calls of active or inactive are those of the source. Calls follow the shape of the dose curve; as a rule, active = well fitted cell-killing curve with a large enough effect; inconclusive = small, poorly fitted or top-dose-only effect, or effect the other way; inactive = no such curve, though single readings can be large or run the other way.
Please state which outcome applies, choosing from true (1) = active, false (0) = inactive

Example entries and their recorded answers appear below.
compound | category
CN(C)NC(=O)CCC(=O)O | false (0)
C[C@@]12OC(=O)[C@]1([C@@H](O)[C@@H]1C=CCCC1)NC(=O)[C@H]2CCCl | true (1)
C[C@]12Cc3cn[nH]c3C[C@@H]1CC[C@@H]1[C@H]2CC[C@@]2(C)[C@H]1CC[C@]2(C)O | false (0)

Q: Per the records of this test, what outcome belongs to COc1ccc2c(c[n+](C)c3c4cc5c(cc4ccc23)OCO5)c1OC ?
Result: true (1)

====

- run.description: Quantitative High-Throughput drug screen in 47 multiple myeloma cell lines against the NCATS MIPE library collection: JJN3_DSMZ cell viability assay (AID 1918966; also: potency is read from the fitted curve at half-maximal effect; nearly all actives have a fitted effect of over 50% in size)
- recorded.conditions: JJN3 myeloma cells viability, CellTiter-Glo ATP, 48 h; series mostly up to 45.8 µM
- Excerpt: PI: Beverly A. Mock Ph.D. Laboratory of Cancer Biology and Genetics, Center for Cancer Research, National Cancer Institute, National Institute of Health, Bethesda, Maryland […] 5; Detector; 425V; Luminescence; Viewlux PerkinElmer. […] 1. […] Briefly, the corresponding myeloma cell lines were screened in 1,536-well plates with 500 cells, 5-uL per well for inhibition of cell viability (assessed by measuring ATP levels with CellTiterGlo). […]
Records with an inconclusive call do not appear. Activity calls are given as the source filed them. Calls come from the whole dose curve; as a rule, active = well fitted cell-killing curve with a large enough effect; inconclusive = small, poorly fitted or top-dose-only effect, or effect the other way; inactive = no such curve, though single readings can be large or run the other way.
Below, each entry is listed with its recorded Potency.

Q: What measured Potency goes with CN(C)[C@@H]1C(=O)C(C(N)=O)=C(O)[C@@]2(O)C(=O)C3=C(O)c4c(O)cccc4[C@@](C)(O)[C@H]3[C@H](O)[C@@H]12 ?
Result: 9.35 µM (active)

Q: Which Potency value is on record for O=S(=O)(CC1CS1)c1ccc(Oc2ccccc2)cc1 (centres undefined) ?
Result: 11.8 µM (active)

Q: Quick one: Potency for CCCCCC[C@H]1C(=O)O[C@H](C)[C@H](NC(=O)c2cccc(NC=O)c2O)C(=O)O[C@@H](C)[C@@H]1OC(=O)CC(C)C ?
Result: 0.296 µM (active)

Q: For the compound shown here, C[C@@H]1CC[C@@]2(OC1)O[C@H]1C[C@H]3[C@@H]4CC=C5C[C@@H](O[C@@H]6O[C@H](CO)[C@@H](O[C@@H]7O[C@@H](C)[C@H](O)[C@@H](O)[C@@H]7O)[C@H](O)[C@@H]6O[C@@H]6O[C@@H](C)[C@H](O)[C@@H](O)[C@@H]6O)CC[C@]5(C)[C@@H]4CC[C@]3(C)[C@@H]1[C@H]2C , give the reported Potency.
Result: 2.35 µM (active)

====

- run.description: qHTS of pediatric cancer cell lines to identify multiple opportunities for drug repurposing: Confirmatory screen for BT-37 cells (AID 1347117);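 also: viability measured after 48 h of compound exposure; nearly all actives have a fitted effect of over 55% in size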
- recorded.conditions: BT-37 pediatric cancer cells, viability; series mostly up to 45.9 µM
Records with an inconclusive call do not appear. Calls of active or inactive are those of the source. The call rests on the fitted dose curve; in most records, active means well fitted cell-killing curve with a large enough effect; inconclusive means small, poorly fitted or top-dose-only effect; inactive means no such curve, though single readings can be large or run the other way.
Select the matching outcome among active, inactive

Answered examples (5):
molecule | category
COc1cc2cc(c1Cl)N(C)C(=O)C[C@H](OC(=O)C(C)C)[C@]1(C)O[C@H]1[C@H](C)[C@@H]1C[C@@](O)(NC(=O)O1)[C@H](OC)C=CC=C(C)C2 | active
CC(C)(O)C=CC(=O)[C@](C)(O)[C@H]1[C@H](O)C[C@]2(C)[C@@H]3CC=C4[C@@H](C=C(O)C(=O)C4(C)C)[C@]3(C)C(=O)C[C@@]12C | active
C[C@@H]1O[C@@H](O[C@@H]2C=C3CC[C@@H]4[C@@H](CC[C@]5(C)[C@H](c6ccc(=O)oc6)CC[C@@]45O)[C@@]3(C)CC2)[C@H](O)[C@H](O)[C@H]1O | active
O=C(O)COc1nc(Cl)c(Cl)cc1Cl | inactive
CC(=O)[O][Hg][c]1ccccc1 | active

Q: Each molecule tested received a call. Report the one for CC=C(C)C(=O)O[C@H]1C(C)=C2[C@@H]3OC(=O)[C@@](C)(O)[C@@]3(O)[C@@H](OC(=O)CCC)C[C@](C)(OC(C)=O)[C@@H]2[C@@H]1OC(=O)CCCCCCC .
Result: inactive

Q: Which outcome was assigned to C=CCON=C(C[C@H]1O[C@@H]2O[C@]3(C)CC[C@@H]4[C@H](C)CC[C@@H]([C@H]1C)[C@@]24OO3)[C@H]1O[C@@H]2O[C@]3(C)CC[C@H]4[C@H](C)CC[C@@H]([C@@H]1C)[C@@]24OO3 in this test?
Result: active

Q: Per the assay record, what outcome was assigned to CC[C@@H]1[C@@H](C)O[C@@](O)([C@@H](C)[C@H](O)[C@H](C)[C@H]2OC(=O)C=CC=C[C@@H](C)[C@@H]([C@@H](C)[C@@H](O)[C@H](C)[C@@]3(O)C[C@H](O[C@H]4C[C@H](O)[C@H](O)[C@H](C)O4)[C@H](CC)[C@@H](C)O3)OC(=O)C=CC=C[C@@H]2C)C[C@H]1O[C@H]1C[C@H](O)[C@H](O)[C@H](C)O1 ?
Result: inactive

Q: Record request — test call for Cc1ccccc1-n1c(Cn2ncc3c(N)ncnc32)nc2cccc(C)c2c1=O
Result: active

Q: Look up the recorded call for CCC(=O)OC1CCC2C3CCC4=CC(=O)CC[C@@]4(C)C3CC[C@]12C (stereo partly specified) in this test.
Result: inactive

Q: Could you kindly confirm the outcome this assay logged for Cc1c(C(=O)Nc2cccc(C(F)(F)F)c2)cc(-c2ccccc2)n1CCCN1CCOCC1 ?
Result: active

Q: Dear colleague, could you share the recorded outcome for CC(C)[C@]12O[C@@H]1[C@@H]1O[C@]13[C@]1(O[C@H]1C[C@@H]1C4=C(CC[C@@]13C)C(=O)OC4)[C@H]2O when you have a moment?
Result: active

Q: Which result was noted for this molecule in the test: COc1ccc2c(c1)CN(C)CC2c1ccc(Cl)c(Cl)c1 (stereo unspecified)
Result: active

Q: Outcome logged for C[C@@H]1CC[C@@]2(OC1)O[C@H]1C[C@H]3[C@@H]4CC=C5C[C@@H](O[C@@H]6O[C@H](CO)[C@@H](O[C@@H]7O[C@@H](C)[C@H](O)[C@@H](O)[C@@H]7O)[C@H](O)[C@@H]6O[C@@H]6O[C@@H](C)[C@H](O)[C@@H](O)[C@@H]6O)CC[C@]5(C)[C@@H]4CC[C@]3(C)[C@@H]1[C@H]2C in this assay:
Result: active

Q: Can you look up the reported call for CC(C)N[C@@H]1CCn2c(=O)[nH]c3cccc(c32)[C@@H]1O for me?
Result: inactive

Q: For this molecule, state the assay outcome: O=C(O)CCCOc1ccc(Cl)cc1Cl
Result: inactive

====

- run.description: VSVG counterscreen qHTS to identify inhibitors of SARS-CoV-2 cell entry (AID 1645847); also: potency is read from the fitted curve at half-maximal effect; nearly all actives have a fitted effect of over 65% in size
- recorded.conditions: VSV-G pseudotyped particle entry, luciferase; series mostly up to 57.2 µM
Results filed as inconclusive are left out. The source made the active and inactive calls. Calls follow the shape of the full dose curve.
Parameter Potency: see the listing below.

item.smiles | result
CC(=O)Nc1ccc([C@H](C)C(=O)Nc2ncc(C(C)C)s2)cc1 | 13.6 µM (active)
CCCS(=O)(=O)Nc1ccc(F)c(C(=O)c2c[nH]c3ncc(-c4ccc(Cl)cc4)cc23)c1F | 21.5 µM (active)
N#CCNC(=O)c1ccc(-c2ccnc(Nc3ccc(N4CCOCC4)cc3)n2)cc1 | 6.81 µM (active)
Cc1n[nH]c(C)c1Cc1sc2c(c1C(=O)N1C[C@H](O)CO1)c(=O)n(C)c(=O)n2CC(C)C | 1.24 µM (active)
CC(C)(C)c1cnc(CSc2cnc(NC(=O)C3CCNCC3)s2)o1 | 1.92 µM (active)

We now examine a further compound.
Q: # query: Potency of entry O=C(O)c1ccc2c(c1)nc(Nc1cccc(Cl)c1)c1ccncc12
Result: 2.15 µM (active)
